System: wild oats
Test: Test A pre-emergence
Assay type: in vivo, Avena fatua
Set-up: key: 0 = no effect, 10 = maximum effect; letter = response symbol
Details: 0.4 kg/ha
Class label 1: response rating at least 8 G. Class label 0: response rating below 8 G.

| compound | targetOrTestSystem | label |
| --- | --- | --- |
| COc1nc(C)nc(NC(=O)NS(=O)(=O)c2ccccc2C(=O)OC(C)C)n1 [drawing 492] | wild oats | label 1 |
| COC(=O)c1ccccc1S(=O)(=O)NC(=O)Nc1nc(OC)nc(OC)n1 [drawing 483] | wild oats | label 1 |
| CCCC(OC(=O)c1ccccc1S(=O)(=O)NC(=O)Nc1nc(C)nc(OC)n1)C(C)C (stereo not shown) [drawing 525] | wild oats | label 0 |
| CCCCOC(=O)c1ccccc1S(=O)(=O)NC(=O)Nc1nc(OC)cc(OC)n1 [drawing 506] | wild oats | label 0 |
| COc1cc(OC)nc(NC(=O)NS(=O)(=O)c2ccccc2C(=O)OC2CCCCC2)n1 [drawing 498] | wild oats | label 0 |
| CCCCCCCCCCOC(=O)c1ccccc1S(=O)(=O)NC(=O)Nc1nc(OC)cc(OC)n1 [drawing 494] | wild oats | label 0 |
| COc1cc(OC)nc(NC(=O)NS(=O)(=O)c2ccccc2C(=O)OCCCl)n1 [drawing 487] | wild oats | label 1 |
| COC(=O)c1cc(Cl)c(Cl)cc1S(=O)(=O)NC(=O)Nc1nc(C)cc(OC)n1 [drawing 519] | wild oats | label 0 |
| COc1nc(C)nc(NC(=O)NS(=O)(=O)c2ccccc2C(=O)OC2CCCCCCC2)n1 [drawing 523] | wild oats | label 0 |
| COc1nc(C)nc(NC(=O)NS(=O)(=O)c2ccccc2C(=O)OCc2ccc(Cl)cc2)n1 [drawing 527] | wild oats | label 0 |
| CCCCCCCCCCCCNC(=O)c1ccccc1S(=O)(=O)NC(=O)Nc1nc(C)nc(OC)n1 [drawing 534] | wild oats | label 0 |
| COC(=O)c1cc(Cl)ccc1S(=O)(=O)NC(=O)Nc1nc(OC)cc(OC)n1 [drawing 500] | wild oats | label 1 |
| COC(=O)c1cc(F)ccc1S(=O)(=O)NC(=O)Nc1nc(C)nc(OC)n1 [drawing 517] | wild oats | label 0 |
| COC(=O)c1cc(Cl)ccc1S(=O)(=O)NC(=O)Nc1nc(C)cc(OC)n1 [drawing 501] | wild oats | label 1 |
| COc1cc(OC)nc(NC(=O)NS(=O)(=O)c2ccccc2C(=O)OC(C)C)n1 [drawing 503] | wild oats | label 0 |
| CCOC(=O)c1ccccc1S(=O)(=O)NC(=O)Nc1nc(OC)cc(OC)n1 [drawing 509] | wild oats | label 1 |
| COc1nc(C)nc(NC(=O)NS(=O)(=O)c2ccccc2C(=O)OC2CCCC2)n1 [drawing 512] | wild oats | label 0 |
| COc1nc(NC(=O)NS(=O)(=O)c2ccccc2C(=O)OC2CCCCC2)nc(OC)n1 [drawing 499] | wild oats | label 0 |

====

System: sorghum
Experiment: Test A pre-emergence
Format: in vivo
Set-up: key: 0 = no effect, 10 = maximum effect; letter = response symbol
Settings: 0.4 kg/ha
Source text: The activity of these compounds was discovered in a number of greenhouse and field tests. The ratings are based on a numerical scale extending from 0=no effect, to 10=maximum effect. The accompanying descriptive symbols have the following meanings: […]
Overview of reported response rating across a group of compounds:

| compound | response rating, H |
| --- | --- |
| CCOC(=O)c1ccccc1S(=O)(=O)NC(=O)Nc1nc(OC)cc(OC)n1 [drawing 509] | 9 |
| COc1nc(C)nc(NC(=O)NS(=O)(=O)c2ccccc2C(=O)OC(C)Cc2ccccc2)n1 (centres unmarked) [drawing 524] | 9 |
| CCCCCCCCCCOC(=O)c1ccccc1S(=O)(=O)NC(=O)Nc1nc(OC)nc(OC)n1 [drawing 496] | 2 |
| COc1cc(C)nc(NC(=O)NS(=O)(=O)c2ccccc2C(=O)OCCCl)n1 [drawing 488] | 10 |
| COC(=O)c1cc(Cl)ccc1S(=O)(=O)NC(=O)Nc1nc(C)cc(OC)n1 [drawing 501] | 9 |
| CCCCOC(=O)c1ccccc1S(=O)(=O)NC(=O)Nc1nc(C)cc(OC)n1 [drawing 507] | 9 |
| COCCc1nc(NC(=O)NS(=O)(=O)c2ccccc2C(=O)OC)nc(OC)n1 [drawing 541] | 9 |
| C=CCOC(=O)c1ccccc1S(=O)(=O)NC(=O)Nc1nc(C)nc(OC)n1 [drawing 518] | 10 |
| COc1cc(C)nc(NC(=O)NS(=O)(=O)c2ccccc2C(=O)N(C)C)n1 [drawing 532] | 9 |
| CCOCCSc1cc(C)nc(NC(=O)NS(=O)(=O)c2ccccc2C(=O)OC)n1 [drawing 536] | 9 |
| COc1cc(C)nc(NC(=O)NS(=O)(=O)c2ccccc2C(=O)SC2CCCCC2)n1 [drawing 543] | 9 |

====

Test system: soybean
Assay: Test A pre-emergence
Format: in vivo
Design: key: 0 = no effect, 10 = maximum effect; letter = response symbol
Conditions: 0.4 kg/ha

| compound | response rating (H) |
| --- | --- |
| C=CCOC(=O)c1ccccc1S(=O)(=O)NC(=O)Nc1nc(C)nc(OC)n1 [drawing 518] | 9 |
| COc1nc(C)nc(NC(=O)NS(=O)(=O)c2ccccc2C(=O)OC(C)Cc2ccccc2)n1 (centres unmarked) [drawing 524] | 9 |
| CCC(C)OC(=O)c1ccccc1S(=O)(=O)NC(=O)Nc1nc(OC)cc(OC)n1 (centres unmarked) [drawing 490] | 8 |
| COc1cc(C)nc(NC(=O)NS(=O)(=O)c2ccccc2C(=O)OCCOCCOCCCl)n1 [drawing 515] | 9 |
| COc1cc(C)nc(NC(=O)NS(=O)(=O)c2ccccc2C(=O)OCCCl)n1 [drawing 488] | 9 |
| CCCCOC(=O)c1ccccc1S(=O)(=O)NC(=O)Nc1nc(OC)cc(OC)n1 [drawing 506] | 7 |
| CCOCCSc1cc(C)nc(NC(=O)NS(=O)(=O)c2ccccc2C(=O)OC)n1 [drawing 536] | 9 |

====

Property: response rating; scope: individual compounds
Tested on: corn
Experiment: Test A pre-emergence
Assay type: in vivo
Set-up: key: 0 = no effect, 10 = maximum effect; letter = response symbol
Settings: 0.4 kg/ha

| compound | response rating, G |
| --- | --- |
| COc1nc(C)nc(NC(=O)NS(=O)(=O)c2ccccc2C(=O)OC(C)CCl)n1 (stereo not shown) [drawing 526] | 9 |
| CCCC(OC(=O)c1ccccc1S(=O)(=O)NC(=O)Nc1nc(C)nc(OC)n1)C(C)C (stereo not shown) [drawing 525] | 8 |
| CCOCCSc1cc(C)nc(NC(=O)NS(=O)(=O)c2ccccc2C(=O)OC)n1 [drawing 536] | 9 |
| COC(=O)c1ccccc1S(=O)(=O)NC(=O)N(C)c1nc(C)cc(C)n1 [drawing 486] | 3 |

====

System: sorghum
Assay: Test A post-emergence
Format: in vivo
Design: key: 0 = no effect, 10 = maximum effect; letter = response symbol
Conditions: 0.4 kg/ha
Text: The activity of these compounds was discovered in a number of greenhouse and field tests. The ratings are based on a numerical scale extending from 0=no effect, to 10=maximum effect. The accompanying descriptive symbols have the following meanings: […]
# response rating annotations
observedProperty: response rating

| compound | testResult |
| --- | --- |
| COC(=O)c1cc(Cl)c(Cl)cc1S(=O)(=O)NC(=O)Nc1nc(C)cc(OC)n1 [drawing 452] | 5G |
| COc1nc(NC(=O)NS(=O)(=O)c2ccccc2C(=O)OC2CCCCC2)nc(OC)n1 [drawing 432] | 3G |
| COc1cc(C)nc(NC(=O)NS(=O)(=O)c2ccccc2C(=O)OCCOc2ccccc2)n1 [drawing 461] | 8G |
| COC(=O)c1ccccc1S(=O)(=O)NC(=O)Nc1nc(OC)nc(OC)n1 [drawing 416] | 9C |
| COc1cc(OC)nc(NC(=O)NS(=O)(=O)c2ccccc2C(=O)OC(C)C)n1 [drawing 436] | 9C |
| COc1cc(C)nc(NC(=O)NS(=O)(=O)c2ccccc2C(=O)OC(C)C)n1 [drawing 437] | 10C |
| COC(=O)c1ccccc1S(=O)(=O)NC(=O)Nc1nc(C)nc(N(C)C)n1 [drawing 472] | 10C |
| COc1cc(C)nc(NC(=O)NS(=O)(=O)c2ccccc2C(=O)OCCCl)n1 [drawing 421] | 9C |
| CCOCCSc1cc(C)nc(NC(=O)NS(=O)(=O)c2ccccc2C(=O)OC)n1 [drawing 469] | 9G |
| COC(=O)c1ccccc1S(=O)(=O)NC(=O)Nc1nc(C)cc(OC)n1 [drawing 413] | 9C |
| COc1cc(C)nc(NC(=O)NS(=O)(=O)c2ccccc2C(=O)OC(C)CCl)n1 (stereo not drawn) [drawing 478] | 9C |
| COC(=O)c1ccccc1S(=O)(=O)NC(=O)Nc1nc(C)cc(C)n1 [drawing 412] | 9C |

Source listed as patent US4383113A.
